target: T1, Myc-tag BAG2 (Homo sapiens (Human), UniProt O95816 1-211, limits assumed); test: sandwich ELISA on lysate of MDA-MB-231 cells overexpressing Myc-tag BAG2 (OE) against empty vector cells (EV)
T1 construct: Expressed in MDA-MB-231 cells; 30 ug of lysate tested in the sandwich ELISA against cells with the Myc-tag empty vector (EV); not tied to this vector in so many words; also called BAG2 overexpressed from the Myc-tag BAG2 expression vector; OE; not shown: Myc tag
T1 sequence (O95816 whole entry): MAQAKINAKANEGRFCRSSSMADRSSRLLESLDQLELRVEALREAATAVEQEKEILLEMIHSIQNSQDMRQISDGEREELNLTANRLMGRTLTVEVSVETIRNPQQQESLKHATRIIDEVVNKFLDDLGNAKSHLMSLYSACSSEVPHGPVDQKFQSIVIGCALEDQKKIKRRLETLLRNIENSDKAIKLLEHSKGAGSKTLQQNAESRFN

>  <Binder>
2A11 antibody (antibody, V domains shown, Mouse monoclonal antibody from a hybridoma; Capture antibody in the sandwich ELISA; also called anti-BAG2 antibody 2A11) VH: QVQLQQPGAELVRPGASVTLSCKASGYTFTDYEMHWVKQTPVHGLEWIGIIDPETGGTAYNQKFKGKATLTADKSSSTAYMELRSLTSEDSAVYYCTRGKFYYSGRDYAMDYWGQGTSVTVSS VL: DVLMTQTPLSLPVSLGDQASISCRSSQSIVHSNGNTYLEWYLQKPGQSPKLLIYKVSNRFSGVPDRFSGSGSGTDFTLKISRVEAEDLGVYFCFQGSQVPPTFGGGTKLEIK

>  <binding result>
binds

$$$$
>  <Binder>
3G8 antibody (antibody, V domains shown, Mouse monoclonal antibody from a hybridoma; also called 3 GB (as misprinted); anti-BAG2 antibody 3G8) VH: QIQLVQSGPELKKPGETVKISCKASGYSFTKYGMNWVKQAPGKDIKWMGWINTNTGEATYGEEVKGRFAFSLETSASTAYLQINNLKNEDTATYFCARLGLRYLDYWGQGTTLTVSS VL: DIVMTQSPASLVVSLGQRATISCRASKSVSTSDYSYMHWYQQKPGQPPKVLIYLASNLESGVPARFSGSGSGTDFTLNIHPVEEEDAATYYCQHNRELPPTFGAGTKLELK

>  <binding result>
binds

$$$$
>  <Binder>
8C4 antibody (antibody, V domains shown, Mouse monoclonal antibody from a hybridoma; also called 8G4 (as misprinted); anti-BAG2 antibody 8C4) VH: QVQLQQPGAELVRPGASVTLSCKASGYTFTDYEMHWVKQTPVHGLEWIGIIDPETAGTAYNQKFKGKATLTADKSSSTAYMELRSLTSEDSAVYYCTRGKFYYSGRDYAMDYWGQGTSVTVSS VL: DVLMTQTPLSLPVSLGDQASISCRSSQSIVHSNGNTYLEWYLQKPGQSPKLLFYKVSNRFSGVPDRFSGSGSGTDFTLKISRVEAEDLGVYFCFQGSQVPPTFGGGTKLEIK

>  <binding result>
binds

$$$$
